- Test system: DU-145 prostate
- test description: NCI-60 one-dose screen, 48 h (100 = growth as untreated, 0 = no growth, -100 = all killed)
- experimental conditions: 10 µM unless noted
This is part of a sample that, as a whole, favours compounds with a hit. Of some 83,000 tested, about 20% had one in any assay.
Rule: growth of 90% or more gives 1; anything lower gives 0.

Study these solved cases before continuing.
Cc1cc(-c2ccccc2)nc2ccccc12 = 1
COc1ccc(SC2c3ccc(O)cc3Oc3nc(N)c(C#N)c(N)c32)cc1 (stereo unspecified) = 1
CCOc1ccc(NC(=O)Nc2cc(C(C)C)ccc2C)cc1 = 1
CCNc1cc(S(=O)(=O)O)ccc1C = 1

Ask: Answer whether growth of COc1ccc2c(c1)nnc1c3cccnc3[nH]c21 is greater than or equal to 90%.
Reply: 0

Ask: What do you get for CC(C)(C)OC(=O)N1CC(Cn2cc(C(F)(F)F)c3c(Cl)ncnc32)C1 ?
Reply: 0

====

- Test system: SR leukemia
- test description: NCI-60 one-dose screen, 48 h
- experimental conditions: 10 µM unless noted
- Experimental: Growth inhibition of the SR human tumor cell line is measured as a screen for anti-cancer activity. Cells are grown in 96 well plates and exposed to the test compound for 48 hours. Compounds are tested at a single concentration, which is 10^-5 M for most compounds. The reported endpoint is percent growth (GI% or GIPRCNT), where numbers from 0 - 100% represent growth inhibition, and numbers from -100% - 0 represent cell death. For example, a value of 40 represents 60% growth inhibition. […]
Compounds without any hit were thinned out: in the full panel of roughly 83,000, 20% have a hit. Activity calls are given as the source filed them. How the source made its calls: active means growth percent below 10; inactive means the rest.
API: response.call in active, inactive

Study these solved cases before continuing.
C#C[C@@]1(O)[C@@H](CO)O[C@@H](n2cc(C(F)(F)F)c3c(N)ncnc32)[C@@H]1O = active
CC(=O)Oc1ccc(C(OC(C)=O)OC(C)=O)cc1 = inactive
COc1ccc(-c2nn(-c3cccc(Cl)c3)cc2-c2cc(-c3ccc(Br)cc3)[nH]c(=O)c2C#N)cc1 = inactive
CC(C)(C)C(=O)Nc1nc2c(s1)CCc1ccn(S(=O)(=O)c3ccccc3)c1-2 = inactive
CCC1(C(N)=O)CC2C=CC1CC2 (stereo unspecified) = inactive

Ask: Recorded test call requested for O=S(=O)(Nc1cccc2cc(OS(=O)(=O)c3ccccc3)ccc12)c1ccccc1
Reply: inactive

Ask: What do you get for O=C(O)c1ccccc1C(=O)c1ccc(I)cc1 ?
Reply: inactive

Ask: What do you get for COc1ccc(/C=C/C(=O)c2ccc(-n3cc(CN4CCN(c5cc6c(cc5F)c(=O)c(C(=O)O)cn6C5CC5)CC4)nn3)cc2)cc1OC ?
Reply: active

Ask: What do you get for CC(CN(C)C)CN1c2ccccc2CCc2ccccc21 (stereo unspecified) ?
Reply: inactive

Ask: What do you get for CCCCNc1cc(C(=O)O)cc(S(N)(=O)=O)c1Oc1ccccc1 ?
Reply: inactive

Ask: What do you get for Nc1ccc(S(=O)(=O)Nc2ccnn2-c2ccccc2)cc1 ?
Reply: inactive

====

- Tested on: MCF7 breast
- test description: NCI-60 one-dose screen, 48 h
- experimental conditions: 10 µM unless noted
About 83,000 compounds went through this panel and 20% of them were active in at least one assay; those are over-represented in the sample as a whole. Calls of active or inactive are those of the source. Rule for the calls: active = growth percent below 10; inactive = the rest.
API: response.call in active, inactive

Study these solved cases before continuing.
Nc1nccc2c1ccn2-c1cccc(NC(=O)c2ccc(N3CCOCC3)c(C(F)(F)F)c2)c1 = inactive
COc1cc(NC(=O)C#Cc2ccccc2)c(OC)cc1Cl = inactive
CC(/C=C/C=C(\C)[C@H](O)[C@H](C)C(=O)O[C@H]1C[C@H](C)C=C2C=C[C@@]3(C)O[C@@H](O)CC(=O)[C@]3(C)[C@H]21)=C\C=C\C(=O)O = active
COc1ccc(-c2nnc(NC(=O)CN3CCN(c4cc5c(cc4F)c(=O)c(C(=O)O)cn5C4CC4)CC3)s2)cc1OC = inactive
CSc1nc(N)nc2c1ncn2C = inactive

Next, consider the following compound.
Ask: Recorded test call requested for O=C(Nc1ccc(-n2ccc3c(NC(=O)c4ccccc4)ncnc32)cc1)c1cccc(C(F)(F)F)c1
Reply: inactive

====

- System: HCC-2998 colon
- test description: NCI-60 one-dose screen, 48 h
- experimental conditions: 10 µM unless noted
Compounds without any hit were thinned out: in the full panel of roughly 83,000, 20% have a hit. Active and inactive are the calls of the source. Rule for the calls: active = growth percent below 10; inactive = the rest.
API: response.call in YES = active, NO = inactive

COC(=O)CCCNS(=O)(=O)c1cc(C(=O)Nc2ccc(NC(=O)c3cc(S(=O)(=O)NCCCC(=O)OC)c(O)c(O)c3O)cc2)c(O)c(O)c1O = NO
COc1ccc(/C=C/C(=O)/C=C(/C=C/c2ccc(OC)c(OC)c2OC)OB(F)F)c(OC)c1OC = NO
C[C@H]1C=C(C[C@@H](O)CC#CC#CCCCCC[C@@H](O)[C@H]2CCC(=O)O2)C(=O)O1 = NO
COc1ccccc1N1CCN(CC(O)COc2c(Br)c(Br)c(Br)c3c2OC(C)(C)C3)CC1 (stereo not given) = NO

Ask: Recorded test call requested for CN(CCNCc1ccccn1)CCNCc1ccccn1
Reply: YES

====

- Test system: DU-145 prostate
- test description: NCI-60 one-dose screen, 48 h
- experimental conditions: 10 µM unless noted
This is part of a sample that, as a whole, favours compounds with a hit. Of some 83,000 tested, about 20% had one in any assay. Activity calls are given as the source filed them. The calls were made as follows: active = growth percent below 10; inactive = the rest.
API: response.call in yes (active), no (inactive)

Study these solved cases before continuing.
N#CC1=C(N)Oc2c(ccc3ccccc23)C1c1cc(=O)oc2ccc(Cl)cc12 (stereo not drawn) = no
CC(C(C(=O)N1CCCCC1)N1CCCCC1)N1CCCCC1 (stereo not drawn) = no
CC(=O)N1N=C2N(Cc3ccccc3)C(=O)c3c(sc4c3CCCC4)N2C1c1cn(-c2ccccc2)nc1-c1ccc(Cl)cc1 (stereo not drawn) = no
C[C@H]1C=C(C[C@@H](O)CC#CC#CCCCCC[C@@H](O)[C@H]2CCC(=O)O2)C(=O)O1 = no
COC1=C(OC)C(=O)C=CC1=O = no

Ask: Recorded test call requested for C[C@H]1C=C(C[C@@H](O)CCCCCCCCCC[C@@H](O)[C@H]2CCC(=O)O2)C(=O)O1
Reply: no

Ask: What do you get for Nc1nccc2c1ccn2-c1ccc(NC(=O)c2ccc(N3CCOCC3)c(C(F)(F)F)c2)cc1 ?
Reply: no

Ask: What do you get for O=C(NCCNc1nccc(-c2c(-c3cccc(O)c3)nc3sccn23)n1)Nc1cccc(C(F)(F)F)c1 ?
Reply: no

Ask: What do you get for CN(CCNCc1ccccn1)CCNCc1ccccn1 ?
Reply: no

Ask: What do you get for COc1cc(/C=C\c2cc(/C=C\c3ccc(O)c(OC)c3)n(C(=O)CNc3ccccc3OC)n2)ccc1O ?
Reply: no

====

- Tested on: 786-0 renal
- test description: NCI-60 one-dose screen, 48 h (100 = growth as untreated, 0 = no growth, -100 = all killed)
- experimental conditions: 10 µM unless noted
About 83,000 compounds went through this panel and 20% of them were active in at least one assay; those are over-represented in the sample as a whole.
quantity kind: growth (%)
Response body: numeric value in %, unit text excluded.

Completed entries (count: 4):
FC(F)(F)c1cn(CCN2CCOCC2)c2ncnc(Cl)c12 = 113
N#Cc1c2c(c(N)[nH]c1=O)C(=O)NC2(O)c1ccccc1 (stereo not given) = 104
O=C(O)c1cn(C2CC2)c2cc(N3CCN(C(=O)CSc4nc(NS(=O)(=O)c5ccccc5)cc(=O)[nH]4)CC3)c(F)cc2c1=O = 111
Cc1ccc(NC(=O)CN2CCOCC2)cc1Cl = 95

Ask: May I ask what growth has been recorded for CN(C)c1ccc(/C=c2\s/c(=C\C(=O)C(C)(C)C)[nH]c2=O)cc1 ?
Reply: 93.2

====

- Test system: COLO 205 colon
- test description: NCI-60 one-dose screen, 48 h (100 = growth as untreated, 0 = no growth, -100 = all killed)
- experimental conditions: 10 µM unless noted
This is part of a sample that, as a whole, favours compounds with a hit. Of some 83,000 tested, about 20% had one in any assay.
Rule: growth of 90% or more gives fulfilled; anything lower gives not fulfilled.

Study these solved cases before continuing.
C=C1C(=O)O[C@H]2[C@H]1CC/C(COC(=O)c1ccc3ccccc3c1)=C\CC[C@@]1(C)O[C@@H]21 = not fulfilled
C=C1c2c(Cl)ccc(O)c2C(O)=C2C(=O)[C@]3(O)C(O)=C(C(N)=O)C(=O)[C@@H](N(C)C)[C@@H]3[C@@H](O)[C@H]12 = not fulfilled
CC(C)CNCC(O)COc1ccc(C(C)(C)c2ccc(OCC(O)CNCC(C)C)cc2)cc1 (centres undefined) = not fulfilled
Nc1nccc2c1ccn2-c1ccc(NC(=O)c2ccc(N3CCOCC3)c(C(F)(F)F)c2)cc1 = not fulfilled
OC(COc1ccccc1Cl)CN1CCN(c2ccc(Cl)cc2)CC1 (centres undefined) = fulfilled

Ask: Answer whether growth of COC(=O)c1oc2c(C(=O)/C=C/c3ccc(OC)cc3)c(OCCN3CCOCC3)ccc2c1C is greater than or equal to 90%.
Reply: not fulfilled

Ask: What do you get for CC(C)C(=O)Nc1nc2c(s1)CCCc1ccn(S(=O)(=O)c3ccccc3)c1-2 ?
Reply: fulfilled

Ask: What do you get for COc1ccc(CCNC=O)cc1OC ?
Reply: fulfilled
